TARGET_SYSTEM: Rat Striatal Nicotinic Receptors ([^3H]NIC binding sites; α4β2) (Rattus norvegicus, UniProt P09483+P12390)
Construct: Whole brain, excluding cortex and cerebellum, was homogenized in 20 vol of ice-cold buffer; from tissue; host or cells: rat brain membranes (whole brain excluding cortex and cerebellum)
Sequence (P09483 31-630): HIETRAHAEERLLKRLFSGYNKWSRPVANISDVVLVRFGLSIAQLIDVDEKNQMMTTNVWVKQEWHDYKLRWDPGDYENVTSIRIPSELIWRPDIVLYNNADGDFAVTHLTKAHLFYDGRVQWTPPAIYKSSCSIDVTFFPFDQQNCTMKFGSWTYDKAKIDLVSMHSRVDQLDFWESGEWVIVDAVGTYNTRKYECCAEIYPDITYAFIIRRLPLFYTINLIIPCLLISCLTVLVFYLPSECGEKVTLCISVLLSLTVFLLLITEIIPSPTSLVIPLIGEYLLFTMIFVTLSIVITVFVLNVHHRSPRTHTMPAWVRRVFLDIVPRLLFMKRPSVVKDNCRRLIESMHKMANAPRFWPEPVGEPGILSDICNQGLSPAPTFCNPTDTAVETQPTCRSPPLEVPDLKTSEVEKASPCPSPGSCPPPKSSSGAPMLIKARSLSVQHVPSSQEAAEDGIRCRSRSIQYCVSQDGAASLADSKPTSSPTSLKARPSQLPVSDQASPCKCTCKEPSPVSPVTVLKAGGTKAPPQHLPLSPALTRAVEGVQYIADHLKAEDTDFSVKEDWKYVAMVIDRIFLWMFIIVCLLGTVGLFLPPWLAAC
Sequence (P12390 25-500): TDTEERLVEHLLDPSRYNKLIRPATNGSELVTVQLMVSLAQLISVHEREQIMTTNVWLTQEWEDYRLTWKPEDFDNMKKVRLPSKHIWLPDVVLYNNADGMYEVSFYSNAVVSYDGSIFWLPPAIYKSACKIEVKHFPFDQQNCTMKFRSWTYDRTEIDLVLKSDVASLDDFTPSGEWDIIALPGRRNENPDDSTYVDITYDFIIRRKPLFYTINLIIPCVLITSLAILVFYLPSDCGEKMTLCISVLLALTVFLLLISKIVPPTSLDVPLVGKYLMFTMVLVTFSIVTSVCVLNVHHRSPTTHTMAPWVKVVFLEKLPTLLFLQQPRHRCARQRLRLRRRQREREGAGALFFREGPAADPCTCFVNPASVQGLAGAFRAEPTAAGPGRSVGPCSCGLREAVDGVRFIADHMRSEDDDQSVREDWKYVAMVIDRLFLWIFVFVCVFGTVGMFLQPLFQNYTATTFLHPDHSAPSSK
PROCEDURE_DETAILS: Inhibition of [^3H]NIC binding
SETTINGS: full concentration effect; 3 nM [^3H]NIC; nonspecific 10 μM cytisine; rat brain membranes; read-out: [^3H]NIC binding, Ki
Please go through the items and note down their pKi.
A value of pKi is the negative decimal logarithm of a concentration given in moles per litre.

Query block: Which pKi is reported for this molecule? "Cc1cccc[n+]1CCCCc1ccc(CCCC[n+]2ccccc2C)cc1"
Result block: 5.23

Query block: Which pKi is reported for this molecule? "Cc1cc[n+](CCCCC#CC#CCCCC[n+]2ccc(C)cc2)cc1"
Result block: 5.05

Query block: Which pKi is reported for this molecule? "CN1CCC[C@@H]1c1ccc[n+](CCCCc2ccc(CCCC[n+]3cccc([C@H]4CCCN4C)c3)cc2)c1"
Result block: 6.20

Query block: Which pKi is reported for this molecule? "C(C#CCCCC[n+]1ccc2c(c1)CCCC2)#CCCCC[n+]1ccc2c(c1)CCCC2"
Result block: 4.95

Query block: Which pKi is reported for this molecule? "Cc1cc[n+](CCC#Cc2ccc(C#CCC[n+]3ccc(C)cc3)cc2)cc1"
Result block: 5.07

Query block: Which pKi is reported for this molecule? "Cc1cccc[n+]1CCCCC#CC#CCCCC[n+]1ccccc1C"
Result block: 5.36

====

TARGET_SYSTEM: Rat Striatal Nicotinic Receptors ([^3H]NIC binding sites; α4β2) (Rattus norvegicus, UniProt P09483+P12390)
Construct: Whole brain, excluding cortex and cerebellum, was homogenized in 20 vol of ice-cold buffer; from tissue; host or cells: rat brain membranes (whole brain excluding cortex and cerebellum)
PROCEDURE_DETAILS: Inhibition of [^3H]NIC binding
SETTINGS: 1 h; 100 nM analog; 3 nM [^3H]NIC; nonspecific 10 μM cytisine; rat brain membranes
Could you label it label 1 if measured inhibition at 0.1 µM is 3% or higher, and label 0 otherwise?

Query block: Item C(#Cc1cccc(C#CCCC[n+]2ccc3ccccc3c2)c1)CCC[n+]1ccc2ccccc2c1 [Example 55] with inhibition at 0.1 µM of 3% or above?
Result block: label 1

Query block: Item Cc1cc[n+](CCCc2ccc(-c3ccc(CCC[n+]4ccc(C)c(C)c4)cc3)cc2)cc1C [Example 72] with inhibition at 0.1 µM of 3% or above?
Result block: label 0

Query block: Item C(#Cc1ccccc1C#CCCC[n+]1ccc2ccccc2c1)CCC[n+]1ccc2ccccc2c1 [Example 30] with inhibition at 0.1 µM of 3% or above?
Result block: label 0

Query block: Item Brc1ccc[n+](CCCCCc2ccccc2CCCCC[n+]2cccc(Br)c2)c1 [Example 44] with inhibition at 0.1 µM of 3% or above?
Result block: label 0

Query block: Item Cc1cc[n+](CCCCCc2cccc(CCCCC[n+]3ccc(C)cc3)c2)cc1 [Example 64] with inhibition at 0.1 µM of 3% or above?
Result block: label 1

Query block: Item Cc1cc(C)c[n+](CCCC#Cc2ccccc2C#CCCC[n+]2cc(C)cc(C)c2)c1 [Example 28] with inhibition at 0.1 µM of 3% or above?
Result block: label 0

Query block: Item Cc1cc(C)c[n+](CCCCCc2cccc(CCCCC[n+]3cc(C)cc(C)c3)c2)c1 [Example 67] with inhibition at 0.1 µM of 3% or above?
Result block: label 1

====

TARGET_SYSTEM: Rat Striatal Nicotinic Receptors ([^3H]MLA binding sites; α7) (Rattus norvegicus, UniProt Q05941)
Construct: Whole brain, excluding cortex and cerebellum, was homogenized in 20 vol of ice-cold buffer; from tissue; host or cells: rat brain membranes (whole brain excluding cortex and cerebellum)
Sequence (Q05941 23-502): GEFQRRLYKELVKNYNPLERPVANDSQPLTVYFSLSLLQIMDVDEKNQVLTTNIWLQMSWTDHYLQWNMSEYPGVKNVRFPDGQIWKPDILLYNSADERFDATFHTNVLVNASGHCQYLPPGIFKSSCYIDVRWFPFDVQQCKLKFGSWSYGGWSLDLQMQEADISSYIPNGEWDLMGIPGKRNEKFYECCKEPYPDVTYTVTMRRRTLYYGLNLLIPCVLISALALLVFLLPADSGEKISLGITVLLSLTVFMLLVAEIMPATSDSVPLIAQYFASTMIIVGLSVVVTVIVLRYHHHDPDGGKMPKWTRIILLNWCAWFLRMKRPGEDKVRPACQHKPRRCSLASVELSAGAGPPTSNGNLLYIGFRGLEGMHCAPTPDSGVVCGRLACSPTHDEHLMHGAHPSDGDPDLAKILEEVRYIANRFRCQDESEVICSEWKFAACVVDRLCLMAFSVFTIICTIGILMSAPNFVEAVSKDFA
PROCEDURE_DETAILS: Inhibition of [^3H]MLA (methyllycaconitine) binding
SETTINGS: 100 nM analog; [^3H]MLA; nonspecific S-nicotine; rat brain membranes; read-out: [^3H]MLA binding, % inhibition
Could you label it label 1 if measured inhibition at 0.1 µM is 6% or higher, and label 0 otherwise?

Query block: Item "Cc1ccc[n+](CCOCCOCCOCC[n+]2cccc(C)c2)c1" with inhibition at 0.1 µM of 6% or above?
Result block: label 1

Query block: Item "Cc1ccc[n+](CCCC#Cc2cccc(C#CCCC[n+]3cccc(C)c3)c2)c1" with inhibition at 0.1 µM of 6% or above?
Result block: label 1

Query block: Item "c1cc2c([n+](CCCc3ccc(-c4ccc(CCC[n+]5cccc6c5CCCC6)cc4)cc3)c1)CCCC2" with inhibition at 0.1 µM of 6% or above?
Result block: label 1

Query block: Item "Cc1ccc[n+](CCCC#Cc2ccccc2C#CCCC[n+]2cccc(C)c2)c1" with inhibition at 0.1 µM of 6% or above?
Result block: label 0

Query block: Item "Cc1cc[n+](CCCC/C=C\C=C/CCCC[n+]2ccc(C)c(C)c2)cc1C" with inhibition at 0.1 µM of 6% or above?
Result block: label 0

Query block: Item "Cc1ccc[n+](CCCc2ccc(-c3ccc(CCC[n+]4cccc(C)c4)cc3)cc2)c1" with inhibition at 0.1 µM of 6% or above?
Result block: label 0

Query block: Item "Cc1cccc[n+]1CCCC#Cc1cccc(C#CCCC[n+]2ccccc2C)c1" with inhibition at 0.1 µM of 6% or above?
Result block: label 0

Query block: Item "c1cc2c([n+](CCOCCOCCOCC[n+]3cccc4c3CCCC4)c1)CCCC2" with inhibition at 0.1 µM of 6% or above?
Result block: label 0

Query block: Item "Cc1cccc[n+]1CCOCCOCCOCC[n+]1ccccc1C" with inhibition at 0.1 µM of 6% or above?
Result block: label 1

Query block: Item "Cc1cc[n+](CCCCCc2cccc(CCCCC[n+]3ccc(C)cc3C)c2)c(C)c1" with inhibition at 0.1 µM of 6% or above?
Result block: label 0

Query block: Item "C(#Cc1cccc(C#CCCC[n+]2cccc(-c3ccccc3)c2)c1)CCC[n+]1cccc(-c2ccccc2)c1" with inhibition at 0.1 µM of 6% or above?
Result block: label 1

Query block: Item "Cc1cc[n+](CCCCCc2cccc(CCCCC[n+]3ccc(C)c(C)c3)c2)cc1C" with inhibition at 0.1 µM of 6% or above?
Result block: label 1

Query block: Item "CCCCc1ccc[n+](CCCC#Cc2cccc(C#CCCC[n+]3cccc(CCCC)c3)c2)c1" with inhibition at 0.1 µM of 6% or above?
Result block: label 1

Query block: Item "c1cc(CCCCC[n+]2ccc3ccccc3c2)cc(CCCCC[n+]2ccc3ccccc3c2)c1" with inhibition at 0.1 µM of 6% or above?
Result block: label 0

Query block: Item "c1c[n+](CCOCCOCCOCC[n+]2ccc3c(c2)CCCC3)cc2c1CCCC2" with inhibition at 0.1 µM of 6% or above?
Result block: label 1

Query block: Item "Cc1cc(C)c[n+](CCOCCOCCOCC[n+]2cc(C)cc(C)c2)c1" with inhibition at 0.1 µM of 6% or above?
Result block: label 0

Query block: Item "Cc1ccc[n+](CCCCCc2cccc(CCCCC[n+]3cccc(C)c3)c2)c1" with inhibition at 0.1 µM of 6% or above?
Result block: label 1

Query block: Item "Cc1cc[n+](CCCCCc2ccccc2CCCCC[n+]2ccc(C)c(C)c2)cc1C" with inhibition at 0.1 µM of 6% or above?
Result block: label 0

Query block: Item "Cc1cc(C)c[n+](CCCCCc2cccc(CCCCC[n+]3cc(C)cc(C)c3)c2)c1" with inhibition at 0.1 µM of 6% or above?
Result block: label 0

Query block: Item "Cc1cc[n+](CCOCCOCCOCC[n+]2ccc(C)cc2)cc1" with inhibition at 0.1 µM of 6% or above?
Result block: label 1
